- system name: CDK2/Cyclin A2 (Homo sapiens, UniProt P24941)
- test name: Inhibition of CDK2/Cyclin A2 (unknown origin) using FAM-labeled peptide as substrate after 40 mins
result type: IC50 (µM)
Answers are plain numbers, in µM.

These recorded examples may help you get a feel for the data.
{"columns": ["compound", "system name", "data value"],
 "data": [
  ["Cn1nc(C(N)=O)c2c1-c1nc(Nc3ccc(N4CCNCC4)cn3)ncc1CC2", "CDK2/Cyclin A2 (Homo sapiens, UniProt P24941)", 0.85],
  ["CN(C)c1ccc(Nc2ncc3c(n2)-c2c(c(C(N)=O)nn2C)CC3)nc1", "CDK2/Cyclin A2 (Homo sapiens, UniProt P24941)", 1.36],
  ["Cn1nc(C(N)=O)c2c1-c1nc(Nc3ccc(N4CCOCC4)cn3)ncc1CC2", "CDK2/Cyclin A2 (Homo sapiens, UniProt P24941)", 1.01]
]}

Would you mind listing IC50 for each of the following compounds?
1. CN(C)c1cccc(Nc2ncc3c(n2)-c2c(c(C(N)=O)nn2C)CC3)c1
2. CCOC(=O)c1nn(C)c2c1C(C)Cc1cnc(Nc3ccccc3)nc1-2 (stereo unspecified)
3. CN1CCN(c2ccc(Nc3ncc4c(n3)-c3c(c(C(N)=O)nn3C)CC4)nc2)CC1

Reply:
[1.21, 0.83, 0.7]
